tested on: THP-1; test: Cytotoxicity against human THP1 cells assessed as reduction in cell viability at 5 uM incubated for 18 hrs by MTT assay relative to control; settings: thp-1, 18 h
Provide the recorded Activity for the entries that follow.
Numbers only, in %.

// worked examples, Activity included
1) CCCN(c1cc(OC)c(Cl)cc1OC)S(=O)(=O)c1ccc(OCC)cc1	71.6
2) CCOc1ccc(S(=O)(=O)Nc2cc(OC)c(Cl)cc2OC)cc1	73.5
3) CCCCOc1ccc(S(=O)(=O)Nc2cc(OC)c(Cl)cc2OC)cc1	95.3
4) COC(=O)c1ccc(S(=O)(=O)Nc2cc(OC)c(Cl)cc2OC)cc1	74.4
5) CCCCCCN(c1cc(OC)c(Cl)cc1OC)S(=O)(=O)c1ccc(OCC)cc1	95.2
6) CCOC(=O)CN(c1cc(OC)c(Cl)cc1OC)S(=O)(=O)c1ccc(OCC)cc1	81.4

# batch: return Activity for each of the 6 compounds below
1. CCCCN(c1cc(OC)c(Cl)cc1OC)S(=O)(=O)c1ccc(OCC)cc1
2. COc1cc(NS(=O)(=O)c2ccc(C(=O)O)cc2)c(OC)cc1Cl
3. CCOc1ccc(S(=O)(=O)N(C(C)=O)c2cc(OC)c(Cl)cc2OC)cc1
4. CCCOc1ccc(S(=O)(=O)Nc2cc(OC)c(Cl)cc2OC)cc1
5. C#CCN(c1cc(OC)c(Cl)cc1OC)S(=O)(=O)c1ccc(OCC)cc1
6. COc1cc(NS(=O)(=O)c2ccc([N+](=O)[O-])cc2)c(OC)cc1Cl

[A]
77.7
98.2
72
71.3
72
97.4

Where these numbers come from: ChEMBL document CHEMBL4376827
